Assay method text: Hygroscopicity measurements (DVS sorption/desorption profiles)
Assay type: physicochemical
Experimental context: Target % P/P0 40.0; 25° C.
Measurement label: Change in Mass (%) - ref, Hysteresis

Worked set:
Input line: Quick one: Change in Mass (%) - ref, Hysteresis for Cc1nc(-c2ccc(OCC(C)C)c(C#N)c2)sc1C(=O)O [Form IX] ?
Output line: 0.160

Input line: What does the data say about its Change in Mass (%) - ref, Hysteresis? Entry: Cc1nc(-c2ccc(OCC(C)C)c(C#N)c2)sc1C(=O)O [Form G of U.S. Pat. No. 6,225,474, reference compound]
Output line: 0.181

[1] Cc1nc(-c2ccc(OCC(C)C)c(C#N)c2)sc1C(=O)O [Form V]
[2] Cc1nc(-c2ccc(OCC(C)C)c(C#N)c2)sc1C(=O)O [Form XI]
Input line: Which entry shows the lesser value of Change in Mass (%) - ref, Hysteresis here, 1 or 2 ? # answer = label of selected item
Output line: 1
(1: −8.50%, 2: 0.150%)

---

Assay method text: Aqueous solubility measurements
Assay type: physicochemical
Experimental context: final pH of saturated solution; media 0.1N HCl; 24 hours at 25° C.
Measurement label: pH

Input line: Name the reported pH value associated with the compound Cc1nc(-c2ccc(OCC(C)C)c(C#N)c2)sc1C(=O)O [Form G of U.S. Pat. No. 6,225,474, reference compound]
Output line: 0.945

Input line: Consider the compound shown here: Cc1nc(-c2ccc(OCC(C)C)c(C#N)c2)sc1C(=O)O [Form IX] What is its recorded pH?
Output line: 1.060

Input line: Data request, read-out pH, for Cc1nc(-c2ccc(OCC(C)C)c(C#N)c2)sc1C(=O)O [Form V]
Output line: 0.951

Input line: Fill blank: measured pH of the compound Cc1nc(-c2ccc(OCC(C)C)c(C#N)c2)sc1C(=O)O [Form XI] is ____.
Output line: 0.967

---

Assay method text: Hygroscopicity measurements (DVS sorption/desorption profiles)
Assay type: physicochemical
Experimental context: Target % P/P0 10.0; 25° C.
Measurement label: Change in Mass (%) - ref, Sorption

Input line: What value of Change in Mass (%) - ref, Sorption has been reported for the following compound? Cc1nc(-c2ccc(OCC(C)C)c(C#N)c2)sc1C(=O)O [Form XI]
Output line: 0.810

[a] Cc1nc(-c2ccc(OCC(C)C)c(C#N)c2)sc1C(=O)O [Form IX]
[b] Cc1nc(-c2ccc(OCC(C)C)c(C#N)c2)sc1C(=O)O [Form G of U.S. Pat. No. 6,225,474, reference compound]
[c] Cc1nc(-c2ccc(OCC(C)C)c(C#N)c2)sc1C(=O)O [Form V]
Input line: Rank descending by Change in Mass (%) - ref, Sorption. Answer format: list of labels, ordered as asked.
Output line: b, a, c

---

Assay method text: Hygroscopicity measurements (DVS sorption/desorption profiles)
Type: physicochemical
Experimental context: Target % P/P0 50.0; 25° C.
Measurement label: Change in Mass (%) - ref, Desorption

[a] Cc1nc(-c2ccc(OCC(C)C)c(C#N)c2)sc1C(=O)O [Form V]
[b] Cc1nc(-c2ccc(OCC(C)C)c(C#N)c2)sc1C(=O)O [Form G of U.S. Pat. No. 6,225,474, reference compound]
Input line: # argmax over Change in Mass (%) - ref, Desorption for candidates a and b Write down the label of the entry you select.
Output line: b

[I] Cc1nc(-c2ccc(OCC(C)C)c(C#N)c2)sc1C(=O)O [Form IX]
[II] Cc1nc(-c2ccc(OCC(C)C)c(C#N)c2)sc1C(=O)O [Form XI]
Input line: Given the listed items, does I or II have the lesser reported Change in Mass (%) - ref, Desorption? Lab note: record the label of whichever item you select.
Output line: I
(I: 0.616%, II: 1.728%)
